// reported TGI per item
- Tested on: RXF 393 renal
- METHOD_SUMMARY: NCI tumour cell line growth inhibition, 48 h
Just the number in µM, nothing appended.

Solved entries (count: 5):
q: Name the recorded TGI of the item CC(C)(C)c1cc(C(C)(C)C)c(SC2OC(CO)C(O)C(O)C2O)c(O)c1O (centres undefined) in your answer.
a: 14.1

q: Please give the documented TGI of COc1cc(C=NCC(=O)CSC(c2ccccc2)c2ccccc2)ccc1O
a: 26.8

q: Annotate the compound Cc1cc(C)c(-c2c(O)c(Br)c(-c3c(C)cc(C)c(Br)c3C)c(O)c2Br)c(C)c1Br with its measured TGI.
a: 7.31

q: Answer with the recorded TGI of C=CC(C)(C)/C(=C\CO[Si](C(C)C)(C(C)C)C(C)C)C(=O)N(C)c1ccccc1I only.
a: 24.5

q: Read the entry CC(Cl)(CCC(Cl)C(C)(C)Cl)C(=O)CBr (centres undefined) and write its reported TGI.
a: 11.2

More entries:
q: Let me know recorded TGI for C[C@]12CC[C@H]3[C@@H](CC=C4C[C@@H](O)CC[C@@]43C)[C@@H]1C/C(=C\c1ccc([N+](=O)[O-])cc1)[C@@H]2O , thanks.
a: 21.4

q: Given the compound C[C@@H]1C[C@@H]2OC(=O)[C@]3(C)[C@H]2[C@@H](OC3(C)O)[C@]2(C)C(=O)C=C[C@@H]12 (some centres undefined) , write its reported TGI.
a: 46

q: State, in one line, measured TGI of COC(=O)c1c(CC(=O)OC(C)C)cc2n(c1=O)Cc1c-2nc2ccccc2c1OC
a: 99.6

q: Read off the recorded TGI for COc1ccc(CN2c3ccccc3Sc3ccccc32)cc1O
a: 15.6

q: Return TGI (reported value) for this compound: C=C(CN1CCc2ccccc2C1)c1ccc(CCCC(=O)Nc2ccccc2N)cc1
a: 35.7

----------
- Tested on: SR leukemia
- METHOD_SUMMARY: NCI tumour cell line growth inhibition, 48 h
QUANTITY_MEASURED: TGI

q: State measured TGI of the molecule O=C(O)c1c(CC(Cc2ccccc2)C(=O)O)ccc2c1CCC2 (stereo not drawn) with SR leukemia.
a: > 100 µM

q: Give SR leukemia TGI for the following molecule: C[C@@H]1CC2(C[C@@H](C)C3[C@@H](CC4(C)CCCC5C6=CC(O)(CC[C@]34C)OC6=CC(=O)OC5(C)C)O2)OC1=O (stereo partly drawn)
a: > 100 µM

Switching to the query record.
q: Give the observed TGI of CCNC1CC(n2cc(C)c(=O)[nH]c2=O)OC1CO (stereo not drawn) for SR leukemia.
a: > 100 µM

----------
- Tested on: NCI/ADR-RES ovarian
- METHOD_SUMMARY: NCI tumour cell line growth inhibition, 48 h; in the data active = GI50 below about 0.43 µM; inactive = the rest
Classes to choose from: yes (1) = active, no (0) = inactive

Record excerpt, results attached:
q: Dear colleague, could you share the recorded outcome for COc1ccc(C(=O)Cn2c(C(=O)c3ccc(Cl)cc3)nc(-c3ccccc3)c2-c2ccccc2)cc1 when you have a moment?
a: no (0)

q: Which outcome did this test record for the compound COc1cccc(C2C(C#N)=C(N)Oc3cc(OCCCCCC[P+](c4ccccc4)(c4ccccc4)c4ccccc4)ccc32)c1 (stereo unspecified) ?
a: no (0)

q: Hi team, can someone confirm the assay call for COc1ccc(CN2c3ccccc3Sc3ccccc32)cc1O ?
a: yes (1)

q: Just curious, what result did CCOc1ccc2cc(-c3nn(CC4CCN(C)CC4)c4ncnc(N)c34)ccc2c1 get here?
a: no (0)

q: In this assay, the call recorded for CN(CCOc1ccc(NS(C)(=O)=O)cc1)CCc1ccc(NS(C)(=O)=O)cc1 was what?
a: no (0)

---
q: Hello, I am checking results. What call was entered for Cc1nc(C(=O)OCc2ccccc2)cc(OCc2ccccc2)c1C ?
a: no (0)
